- Tgt: Translocator protein (Rattus norvegicus, UniProt P16257)
- Sequence (P16257 whole entry, looked up): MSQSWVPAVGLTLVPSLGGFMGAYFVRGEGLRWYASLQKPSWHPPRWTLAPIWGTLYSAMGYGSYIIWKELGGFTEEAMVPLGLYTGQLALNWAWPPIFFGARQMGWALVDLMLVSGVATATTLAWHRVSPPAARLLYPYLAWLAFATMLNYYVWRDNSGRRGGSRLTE
- Assay Text: Displacement of [3H]-PK 11195 from peripheral-type benzodiazepine receptor of rat ovary membranes
- Format: cell membranes, Female gonad, Membrane
pIC50: −log10 of the molar value.
If the reported pIC50 equals or exceeds 7, assign YES. If not, assign NO.

INSERT INTO measurements (item_smiles, cat) VALUES
  ('CCCN(CCC)C(=O)Cc1c(-c2ccc(Cl)cc2)nc2c(OC)cccn12', 'YES'),
  ('CCCN(CCC)C(=O)Cc1c(-c2ccc(Cl)cc2)nc2c(Cl)cc(Cl)cn12', 'YES'),
  ('CCCN(CCC)C(=O)Cc1c(-c2ccc(Cl)cc2)nc2ccccn12', 'YES'),
  ('CCCN(CCC)C(=O)Cc1c(-c2ccc(Cl)cc2)nc2c(NC(C)=O)cccn12', 'YES'),
  ('CCCN(CCC)C(=O)Cc1c(-c2ccccc2)nc2c(OC)cccn12', 'YES'),
  ('CCCNC(=O)Cc1c(-c2ccc(Cl)cc2)nc2ccccn12', 'NO');

Check the entry `CCCN(CCC)C(=O)Cc1c(-c2ccccc2)nc2c(Cl)cccn12` : does pIC50 equal or exceed 7?
YES

Further, for `CCCN(CCC)C(=O)Cc1c(-c2ccc(Cl)cc2)nc2c(Br)cc(Br)cn12` ?
YES

Further, for `CCCCCCN(CCCCCC)C(=O)Cc1c(-c2ccccc2)nc2ccccn12` ?
YES

Further, for `CCCNC(=O)Cc1c(-c2ccccc2)nc2ccccn12` ?
NO

Further, for `CCCN(CCC)C(=O)Cc1c(-c2ccc(Cl)cc2)nc2c([N+](=O)[O-])cccn12` ?
YES

Further, for `CCCN(CCC)C(=O)Cc1c(-c2ccccc2)nc2ccc(C(N)=O)cn12` ?
NO

* * *

- Tgt: GABA-A receptor; alpha-1/beta-2/gamma-2 (Homo sapiens) (UniProt P14867+P47870+P18507)
- Assay Text: Modulatory activity against human GABA-A receptor alpha-1-beta-2-gamma-2 subunits expressed in Xenopus laevis Oocytes at 100 uM
- Assay type: cell-based
Measurement Type: Activity

INSERT INTO measurements (item_smiles, reported_measurement) VALUES
  ('CCCN(CCC)C(=O)Cc1c(-c2ccc(Cl)cc2)nc2c(C)cccn12', '< -44.3'),
  ('CCCCN(CCCC)C(=O)Cc1c(-c2ccc(Cl)cc2)nc2ccccn12', '< 23.9');

# value lookup — system GABA-A receptor; alpha-1/beta-2/gamma-2 (Homo sapiens) (UniProt P14867+P47870+P18507), readout Activity, item `CCCCN(CCCC)C(=O)Cc1c(-c2ccccc2)nc2ccccn12`
< 58.2

* * *

For each record, write down the corresponding pIC50.
- Tgt: GABA-A receptor; anion channel
- Assay Text: Affinity benzodiazepine receptor as ability to displace [3H]flunitrazepam from binding to membrane preparations from rat cerebral cortex.
- Assay type: tissue-based
One number for each entry.

INSERT INTO measurements (item_smiles, tgt, reported_measurement) VALUES
  ('CCCN(CCC)C(=O)Cc1c(-c2ccc(Cl)cc2)nc2c(Cl)cc(C(F)(F)F)cn12', 'GABA-A receptor; anion channel', 5),
  ('CCCN(CCC)C(=O)Cc1c(-c2ccccc2)nc2c(NC(C)=O)cccn12', 'GABA-A receptor; anion channel', 4.96),
  ('CCCN(CCC)C(=O)Cc1c(-c2ccc(Cl)cc2)nc2c(Br)cc(Br)cn12', 'GABA-A receptor; anion channel', 5),
  ('CCCN(CCC)C(=O)Cc1c(-c2ccc(Cl)cc2)nc2c(NC)cccn12', 'GABA-A receptor; anion channel', 4),
  ('CCCN(CCC)C(=O)Cc1c(-c2ccccc2)nc2ccc(C(=O)OC)cn12', 'GABA-A receptor; anion channel', 4.92),
  ('CCCCNC(=O)Cc1c(-c2ccccc2)nc2c(Cl)cc(Cl)cn12', 'GABA-A receptor; anion channel', 4),
  ('CCCCCCN(CCCCCC)C(=O)Cc1c(-c2ccccc2)nc2ccccn12', 'GABA-A receptor; anion channel', 3.93),
  ('CCCN(CCC)C(=O)Cc1c(-c2ccc(Cl)cc2)nc2c(NC(C)=O)cccn12', 'GABA-A receptor; anion channel', 4.09),
  ('CCCN(CCC)C(=O)Cc1c(-c2ccc(Cl)cc2)nc2c([N+](=O)[O-])cccn12', 'GABA-A receptor; anion channel', 5);

Next compound, please.
// returns reported pIC50 for input `CCCN(CCC)C(=O)Cc1c(-c2ccc(Cl)cc2)nc2c(N)cccn12`
5.07
